study target: human ether-à-go-go-related gene (hERG) potassium channel (human, UniProt Q12809)
Sequence (Q12809 whole entry, looked up): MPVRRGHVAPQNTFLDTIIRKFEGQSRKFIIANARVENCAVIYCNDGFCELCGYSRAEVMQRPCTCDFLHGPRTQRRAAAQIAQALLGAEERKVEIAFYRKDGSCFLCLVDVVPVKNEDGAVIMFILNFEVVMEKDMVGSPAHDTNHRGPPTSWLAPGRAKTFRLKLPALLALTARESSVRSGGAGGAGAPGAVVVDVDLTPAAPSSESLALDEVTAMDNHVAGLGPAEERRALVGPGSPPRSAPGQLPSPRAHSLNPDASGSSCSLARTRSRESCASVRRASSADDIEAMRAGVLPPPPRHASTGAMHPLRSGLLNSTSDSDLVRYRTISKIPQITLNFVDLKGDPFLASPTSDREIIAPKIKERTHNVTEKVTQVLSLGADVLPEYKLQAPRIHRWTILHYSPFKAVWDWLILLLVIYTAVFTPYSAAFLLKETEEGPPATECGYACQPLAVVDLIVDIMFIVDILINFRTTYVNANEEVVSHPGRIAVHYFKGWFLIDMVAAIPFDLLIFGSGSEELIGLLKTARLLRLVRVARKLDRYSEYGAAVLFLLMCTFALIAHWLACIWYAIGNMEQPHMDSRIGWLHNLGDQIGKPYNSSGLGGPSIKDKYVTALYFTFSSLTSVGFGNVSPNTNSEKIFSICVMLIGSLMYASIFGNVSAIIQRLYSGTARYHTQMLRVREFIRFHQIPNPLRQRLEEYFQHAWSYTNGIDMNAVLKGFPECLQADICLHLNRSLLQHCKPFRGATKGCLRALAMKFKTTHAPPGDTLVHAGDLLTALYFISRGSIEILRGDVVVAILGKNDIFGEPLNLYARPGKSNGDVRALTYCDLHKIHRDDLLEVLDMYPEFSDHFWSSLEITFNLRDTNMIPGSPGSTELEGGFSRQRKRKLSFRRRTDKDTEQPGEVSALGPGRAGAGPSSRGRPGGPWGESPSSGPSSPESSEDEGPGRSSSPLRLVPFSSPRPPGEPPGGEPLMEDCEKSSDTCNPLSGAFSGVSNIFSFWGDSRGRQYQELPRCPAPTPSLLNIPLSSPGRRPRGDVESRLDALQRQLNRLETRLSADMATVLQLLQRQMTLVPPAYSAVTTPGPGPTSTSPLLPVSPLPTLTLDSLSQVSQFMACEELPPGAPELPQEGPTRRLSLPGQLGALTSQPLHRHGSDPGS
procedure summary: primary screen, population patch clamp on CHO cells stably expressing hERG; higher = less effect of the substance
In all, about 310,000 compounds went through this assay and about 14,000 (4.5%) showed an effect of 50% or more. Effects have a minus sign here. The list comes from a sample in which strong results are over-represented; it also holds close analogues and randomly drawn compounds.
measured metric: hERG current change (%, negative = inhibition) at 10uM (%)

compound: CCOC(=O)COn1c(=O)c(-c2ccc(Cl)cc2)[n+]([O-])c2ccccc21
unit tag: %
experimental result: -4.24

compound: CS(=O)(=O)c1ccc(-n2c(=O)n(Cc3ccccc3)c(=O)c3[nH]cnc32)cc1
unit tag: %
experimental result: -45.7

compound: CCN(CC)C(=O)Oc1ccc2c(=O)c(-c3ccc(OC)cc3)c(C)oc2c1
unit tag: %
experimental result: -35.8

compound: Cc1cccc(NC(=O)c2cc3c(=O)n4ccccc4nc3n(CC(C)C)c2=N)c1
unit tag: %
experimental result: -78

compound: CN(C)CCN(C(=O)c1cccc2ccccc12)c1nc2cc3c(cc2s1)OCO3.Cl
unit tag: %
experimental result: -22.3

compound: O=C(N/C(=C\c1ccc([N+](=O)[O-])cc1)C(=O)N1CCCCC1)c1ccc(Br)o1
unit tag: %
experimental result: -72

compound: CN(C)CCN(C(=O)c1cccs1)c1nc2cc3c(cc2s1)OCCO3.Cl
unit tag: %
experimental result: -23.6

compound: COc1cccc(NC(=O)C(Sc2nc3ccccc3c(=O)n2CC(C)C)c2ccccc2)c1 (stereo not drawn)
unit tag: %
experimental result: 11.8

compound: Cc1cccc(OCC(=O)Nc2ccc(NC(=O)c3ccco3)c(C)c2)c1
unit tag: %
experimental result: -15.3

compound: CCOC(=O)C1C2C=CC3(CN(Cc4cccs4)C(=O)C13)O2 (stereo not drawn)
unit tag: %
experimental result: 1.73

compound: Cc1ccc2nc(N(CCCN(C)C)C(=O)c3ccc(Br)s3)sc2c1.Cl
unit tag: %
experimental result: -44.3

compound: COc1cccc(NC(=O)c2cc3c(=O)n4ccccc4nc3n(CC(C)C)c2=N)c1
unit tag: %
experimental result: -82

* * *

study target: human ether-à-go-go-related gene (hERG) potassium channel (human, UniProt Q12809)
procedure summary: primary screen, population patch clamp on CHO cells stably expressing hERG; higher = less effect of the substance
The campaign covered roughly 310,000 compounds. About 14,000 (4.5%) showed an effect of 50% or more. The effect is printed as a negative number. The list comes from a sample in which strong results are over-represented; it also holds close analogues and randomly drawn compounds.
The following compounds are listed with their measured hERG current change (%, negative = inhibition) at 10uM values.
measured metric: hERG current change (%, negative = inhibition) at 10uM (%)

compound: CC(C)CC(COCc1ccc(C(F)(F)F)cc1)N1CCN(C(=O)c2ccc(C(F)(F)F)cc2)CCC1=O (centres unmarked)
study target: human ether-à-go-go-related gene (hERG) potassium channel (human, UniProt Q12809)
unit tag: %
experimental result: -16.7

compound: COc1ccc2nc(NC(=O)C34CC5CC(CC(NC(C)=O)(C5)C3)C4)sc2c1
study target: human ether-à-go-go-related gene (hERG) potassium channel (human, UniProt Q12809)
unit tag: %
experimental result: -11.1

compound: COc1cc(OC)c2c(-c3ccccc3)cc(=O)oc2c1C(CCN1CCCC1)c1ccc2c(c1)OCO2 (centres unmarked)
study target: human ether-à-go-go-related gene (hERG) potassium channel (human, UniProt Q12809)
unit tag: %
experimental result: -46.9

compound: COc1ccc(NCc2ccsc2)cc1
study target: human ether-à-go-go-related gene (hERG) potassium channel (human, UniProt Q12809)
unit tag: %
experimental result: 2.52

compound: CCN(c1ccccc1)S(=O)(=O)c1ccc(C(=O)Nc2nccs2)cc1
study target: human ether-à-go-go-related gene (hERG) potassium channel (human, UniProt Q12809)
unit tag: %
experimental result: 8.62

compound: O=c1cc(NC2CCCCCC2)[nH]c(=O)[nH]1
study target: human ether-à-go-go-related gene (hERG) potassium channel (human, UniProt Q12809)
unit tag: %
experimental result: 4.69

compound: CCCCc1ccc(NC(=O)CSc2nc(=O)n(CCN(CC)CC)c3c2CCC3)cc1
study target: human ether-à-go-go-related gene (hERG) potassium channel (human, UniProt Q12809)
unit tag: %
experimental result: -65.8

compound: CC(=O)NC12CC3CC(C1)CC(C(=O)Nc1nc4ccc(S(C)(=O)=O)cc4s1)(C3)C2
study target: human ether-à-go-go-related gene (hERG) potassium channel (human, UniProt Q12809)
unit tag: %
experimental result: -1.14

* * *

study target: human ether-à-go-go-related gene (hERG) potassium channel (human, UniProt Q12809)
procedure summary: primary screen, population patch clamp on CHO cells stably expressing hERG; higher = less effect of the substance
The whole screen tested about 310,000 compounds, of which about 14,000 (4.5%) showed an effect of 50% or more. The effect is printed as a negative number. Many of the other results were omitted from the sample, so strong results are more common in it than they were.
Please use t whenever hERG current change (%, negative = inhibition) at 10uM is not below -30%, and f whenever it is.

molecule: CCOCCCNC(=O)c1cc(Cl)c(NC(=O)C2=C(C)OCCS2)cc1OC
cat: t
//
molecule: COc1cc(NC(=O)C2=C(C)OCCS2)c(Cl)cc1C(=O)NCCN(C)C
cat: t
//
molecule: CC(C)Cc1nc2oc3c(=O)[nH]cnc3c2c2c1CCCC2
cat: t
//
molecule: Cc1ccc(C(CNS(=O)(=O)c2ccc(F)cc2C)N2CCN(C)CC2)cc1 (centres unmarked)
cat: f
//
molecule: Cc1ccc(C(CNS(=O)(=O)c2ccc(Cl)cc2)N2CCN(C)CC2)cc1 (centres unmarked)
cat: f
//
molecule: CC(=O)NC(=O)COC(=O)c1ccc2ncsc2c1
cat: t
//
molecule: CSCCC(NC(=O)COc1ccccc1)C(=O)N1CC(C)CC(C)C1 (centres unmarked)
cat: f
//
molecule: COc1ccc(CC(=O)NCC2CCCN(Cc3ccc(SC)cc3)C2)cc1 (centres unmarked)
cat: f
//
molecule: CSC(=NC#N)N1CCN(c2ccc(Cl)cc2)CC1
cat: f
//
molecule: CCc1ccc(NC(=O)Nc2ccncc2)cc1
cat: t
//
molecule: COc1ccc(CNC(=O)Cn2cc([N+](=O)[O-])cn2)cc1
cat: t
//
molecule: Cc1ccc(C(CNS(=O)(=O)c2ccc([N+](=O)[O-])cc2)N2CCN(C)CC2)cc1 (centres unmarked)
cat: f
//
molecule: COC(=O)c1ccc(CN2CCCC(CNC(=O)Cc3ccc(OC)cc3)C2)cc1 (centres unmarked)
cat: t
//
molecule: COc1ccc(N2CCN(C(CNS(=O)(=O)c3ccccc3)c3ccccc3)CC2)cc1 (centres unmarked)
cat: t
//
molecule: Cc1cccc(C(=O)NCCN2CCOCC2)c1[N+](=O)[O-]
cat: t
//
molecule: CC(CCC(=O)Nc1nncs1)C(=O)O (centres unmarked)
cat: t
//
molecule: N#Cc1ccc(C23CC4(C2)[C@H](CN(CC2CCCCC2)[C@@H]4c2ccccc2)C3c2ccccc2)cc1 (some centres unmarked)
cat: t
//
molecule: CC1(C)CC(=O)C2=C(C1)NC(=O)NC2c1ccccc1 (centres unmarked)
cat: t
//
molecule: CCCc1nc2oc3c(=O)[nH]cnc3c2c2c1CCCC2
cat: f
//
molecule: CCN(CC)CCCn1c2c(c(SCC(=O)Nc3ccc(OC(F)(F)F)cc3)nc1=O)CCC2
cat: f
//
molecule: CCN1CCN(CCNC(=O)c2cc(Cl)c(NC(=O)C3=C(C)OCCS3)cc2OC)CC1
cat: f
//
molecule: CSC(=NC#N)N1CCN(c2ccccc2)CC1
cat: t
//
molecule: COc1ccc(-c2cc(C(=O)N3CC(C)CC(C)C3)c3ccccc3n2)cc1 (centres unmarked)
cat: t
//
molecule: COc1ccc(CC(=O)NCC2CCCN(Cc3cccc(SC)c3)C2)cc1 (centres unmarked)
cat: f
//
molecule: OCCC1CN(Cc2cccc3nccnc23)CCN1C1CCCC1 (centres unmarked)
cat: t
//
molecule: Cc1cccc(-n2c(C)cc(C)c(C#N)c2=O)c1
cat: t
//
molecule: C[C@H](NC(=O)c1nc[nH]c1C(=O)N(C)Cc1ccccc1)C(=O)OC(C)(C)C
cat: t
//
molecule: CCCCN(C(=O)c1cc2c(s1)CCC2)c1c(N)n(CCCC)c(=O)[nH]c1=O
cat: t

* * *

This listing pairs compounds with measured hERG current change (%, negative = inhibition) at 10uM.
study target: human ether-à-go-go-related gene (hERG) potassium channel (human)
procedure summary: primary screen, population patch clamp on CHO cells stably expressing hERG; higher = less effect of the substance
Method: Briefly, Chinese hamster ovary (CHO) cells stably expressing the hERG channel were dislodged from tissue culture flasks and dispensed into PPC plates. […] During the recording, background leak currents were estimated by a 100 ms step to -80 mV from an initial holding potential of -70 mV and subtracted from the subsequent current measurement. The campaign was conducted in two phases using slight differences in recording protocol. […]
Screen size: about 310,000 compounds; about 14,000 (4.5%) showed an effect of 50% or more. The effect is printed as a negative number. For the sample, strong results were picked, then their nearest neighbours and some compounds at random.
measured metric: hERG current change (%, negative = inhibition) at 10uM (%)

compound: Cc1cc(Oc2ccccc2)nc(SCC(=O)Nc2ccccc2)n1
study target: human ether-à-go-go-related gene (hERG) potassium channel (human)
experimental result: 19.4
--
compound: Cc1nn(-c2cccc(Cl)c2)c2nc(-c3ccco3)cc(C(=O)O)c12
study target: human ether-à-go-go-related gene (hERG) potassium channel (human)
experimental result: 19
--
compound: Cc1ccc(NC(=O)COC(=O)CSCC(=O)Nc2cc(C)on2)c(C)c1
study target: human ether-à-go-go-related gene (hERG) potassium channel (human)
experimental result: -17.9
--
compound: CCOC(=O)c1cc(-c2ccncc2)nc2c1c(C)nn2-c1ccccn1
study target: human ether-à-go-go-related gene (hERG) potassium channel (human)
experimental result: -63.3
--
compound: O=C(CCc1nc(-c2ccccc2Cl)no1)NC1CCCCC1
study target: human ether-à-go-go-related gene (hERG) potassium channel (human)
experimental result: 10.6
--
compound: CC(=O)c1cccc(Nc2cc(C)nc3c(C)cc(C)cc23)c1.Cl
study target: human ether-à-go-go-related gene (hERG) potassium channel (human)
experimental result: -56.1
--
compound: CC(=O)c1ccc(Nc2cc(C)nc3c(C)cccc23)cc1
study target: human ether-à-go-go-related gene (hERG) potassium channel (human)
experimental result: -36.2
--
compound: COc1cccc(N2CCN(C(=O)CCc3nnc4ccc(N5CCOCC5)nn34)CC2)c1
study target: human ether-à-go-go-related gene (hERG) potassium channel (human)
experimental result: -7.05
--
compound: Cc1ccccc1-n1nc(C)c2c(C(=O)NN)cc(-c3ccncc3)nc21
study target: human ether-à-go-go-related gene (hERG) potassium channel (human)
experimental result: 38.5
--
compound: Cc1ccc(-n2c(-c3ccccc3)c[n+]3c2CCC3)cc1.[Br-]
study target: human ether-à-go-go-related gene (hERG) potassium channel (human)
experimental result: -50.7
--
compound: FC(F)Sc1ccc(-n2c(-c3ccc(Cl)cc3)c[n+]3c2CCC3)cc1.[Br-]
study target: human ether-à-go-go-related gene (hERG) potassium channel (human)
experimental result: -92.6
--
compound: COC(=O)CSc1nnc(-c2ccc(NS(=O)(=O)c3ccccc3)cc2)o1
study target: human ether-à-go-go-related gene (hERG) potassium channel (human)
experimental result: 9.9
--
compound: Cc1cc(C)c2nc(C)cc(Nc3ccc(C(=O)N(C)C)cc3)c2c1
study target: human ether-à-go-go-related gene (hERG) potassium channel (human)
experimental result: -28.1
--
compound: O/C(=C\c1ccc2ccccc2n1)c1ccc(O)cc1O
study target: human ether-à-go-go-related gene (hERG) potassium channel (human)
experimental result: 4.33
--
compound: Cc1ccc(-c2nnc(N3CCN(C(=O)CN4CCOCC4)CC3)c3ccccc23)cc1
study target: human ether-à-go-go-related gene (hERG) potassium channel (human)
experimental result: -31.5
--
compound: COC(=O)Cc1cc(=O)oc2cc(O)ccc12
study target: human ether-à-go-go-related gene (hERG) potassium channel (human)
experimental result: 5.29
--
compound: Cc1ccc(-c2nnc(N3CCN(C(=O)c4ccco4)CC3)c3ccccc23)cc1
study target: human ether-à-go-go-related gene (hERG) potassium channel (human)
experimental result: -75.2
--
compound: Clc1ncnc2scc(-c3ccc(Br)cc3)c12
study target: human ether-à-go-go-related gene (hERG) potassium channel (human)
experimental result: 7.97
--
compound: CC(=O)c1cccc(Nc2cc(C)nc3c(C)cccc23)c1.Cl
study target: human ether-à-go-go-related gene (hERG) potassium channel (human)
experimental result: -72.8
--
compound: CC1CCN(c2ccc3nnc(CCC(=O)N4CCN(c5ccc(F)cc5)CC4)n3n2)CC1
study target: human ether-à-go-go-related gene (hERG) potassium channel (human)
experimental result: -66.2
--
compound: N#Cc1c(N2CCN(C(=O)c3ccco3)CC2)nc(-c2ccccc2)c2c1CCCC2
study target: human ether-à-go-go-related gene (hERG) potassium channel (human)
experimental result: -5.84
--
compound: c1ccc(CCCCNCC2COc3ccccc3O2)cc1 (stereo not drawn)
study target: human ether-à-go-go-related gene (hERG) potassium channel (human)
experimental result: -28.5
--
compound: C[C@@H](NC(=O)c1nc[nH]c1C(=O)NCc1ccc(CNC(=O)OC(C)(C)C)cc1)c1ccccc1
study target: human ether-à-go-go-related gene (hERG) potassium channel (human)
experimental result: 6.47
--
compound: Cc1ccc(-n2c(-c3ccc(Cl)cc3)c[n+]3c2CCC3)cc1.[Br-]
study target: human ether-à-go-go-related gene (hERG) potassium channel (human)
experimental result: -62.4
--
compound: Cc1ccc(-c2nnc(N3CCCCC3)c3ccccc23)cc1
study target: human ether-à-go-go-related gene (hERG) potassium channel (human)
experimental result: -11.2
--
compound: CCOC(=O)C1(CCCc2ccccc2)CCN(C(=O)Cn2nc(C)nc2C)CC1
study target: human ether-à-go-go-related gene (hERG) potassium channel (human)
experimental result: -24.6
--
compound: COc1ccc(-c2[nH]ncc2CN(C)CCN2CCOCC2)cc1F
study target: human ether-à-go-go-related gene (hERG) potassium channel (human);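 further: peak tail current of the secondary pulse compared with the same well before compound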
experimental result: 16.6
--
compound: CCOC(=O)c1nn(-c2cccc(C)c2)c2nnc(Cc3ccc(C)cc3)c(=O)n12
study target: human ether-à-go-go-related gene (hERG) potassium channel (human);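 further: peak tail current of the secondary pulse compared with the same well before compound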
experimental result: -16.1
--
compound: [Br-].c1ccc(-c2c[n+]3c(n2-c2ccccc2)CCC3)cc1
study target: human ether-à-go-go-related gene (hERG) potassium channel (human);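 further: peak tail current of the secondary pulse compared with the same well before compound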
experimental result: -3.72
--
compound: COc1ccc(N(C(=O)c2ccc3c(c2)OCO3)C2C=CS(=O)(=O)C2)c(OC)c1 (stereo not drawn)
study target: human ether-à-go-go-related gene (hERG) potassium channel (human);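 further: peak tail current of the secondary pulse compared with the same well before compound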
experimental result: -22.3
